Below, IC50 values reported for Glycogen synthase kinase-3 alpha (Homo sapiens, UniProt P49840) across several publications.

Take a look at these entries with their results.
COc1ccc(-n2nc(C(C)C)cc2NC(=O)Nc2ccc(Oc3ccnc(Nc4ccc5[nH]nc(OCCN6CCOCC6)c5c4)n3)c3ccccc23)cc1
0.203 µM
C#CC(C)(C)c1cc(NC(=O)Nc2ccc(Oc3ccnc(Nc4cccc(OCCOCCOCCOC)n4)n3)c3ccccc23)n(-c2ccc(C)cc2)n1
> 10 µM

In the following, a different compound is considered.
Ask: // IC50 lookup, key: "COc1cc(Nc2cc(Oc3ccc(NC(=O)Nc4cc(C(C)(C)C)cc(CC(N)=O)c4OC)c4ccccc34)ccn2)cc(C(=O)NCCCN2CC[S+]([O-])CC2)c1"
Reply: 1.32 µM

----------
pIC50: −log10 of the molar value.
Field: pIC50. System: Glycogen synthase kinase-3 alpha (Homo sapiens). Provenance: assorted publications.
Classification field: enter yes for pIC50 values not below 6, no for values below it.

Please review the entries below; each comes with its answer.
COc1c(CN(C)C(C)=O)cc(C(C)(C)C)cc1NC(=O)Nc1ccc(Oc2ccnc(Nc3ccccc3)c2)c2ccccc12
no
CN1CC(=O)N(C)CCCc2cc(ccn2)-c2ncnc(n2)Nc2cccc(c2)C1
yes
COCC(=O)Nc1cc(Oc2ccc(NC(=O)Nc3cc(C(C)(C)C)nn3-c3ccc(P(C)(C)=O)cc3)c3ccccc23)ccn1
yes
O=C(Nc1cnccc1N1CCC(F)(F)CC1)c1ccnn2cc(-c3ccccc3)nc12
yes

Ask: Quick check: does "COc1c(NC(=O)Nc2ccc(Oc3ccnc(NC4CCN(C)CC4)n3)c3ccccc23)cc(C(C)(C)C)cc1P(C)(C)=O" have pIC50 greater than or equal to 6?
Reply: yes

Ask: For this compound, is measured pIC50 6 or higher? COc1cc(Nc2cc(Oc3ccc(NC(=O)Nc4cc(C(C)(C)C)cc([S+](C)[O-])c4OC)c4ccccc34)ccn2)cc(C(=O)NCCN2CC[S+]([O-])CC2)c1 (stereo not shown)
Reply: no

Ask: Check this compound for pIC50 at or above 6: "CC(C)(C)c1cc(NC(=O)Nc2ccc(Oc3ccnc(Nc4ccc5[nH]nnc5c4)n3)c3ccccc23)n(-c2ccc(OCCN3CCOCC3)cc2)n1"
Reply: yes

Ask: Does the reported pIC50 for "Cc1ccc(-n2nc(C(C)(C)C)cc2NC(=O)Nc2ccc(Oc3cc(Nc4ccc5[nH]ncc5c4)ncn3)c3ccccc23)cc1" fall at or above the 6 mark?
Reply: no

Ask: For this compound, is measured pIC50 6 or higher? "Cc1ccc(-n2nc(C(C)(C)C)cc2NC(=O)Nc2ccc(Oc3ccnc(Nc4ccc5c(cnn5CCN5CCOCC5)c4)n3)c3ccccc23)cc1"
Reply: yes

Ask: Would you say "CC(C)(C)c1cc(NC(=O)Nc2ccc(Oc3ccnc(Nc4cccc(C(=O)NCCN5CCOCC5)c4)n3)c3ccccc23)n(-c2cccc(P(C)(C)=O)c2)n1" shows pIC50 at minimum 6?
Reply: yes

----------
Published log10 IC50 for Glycogen synthase kinase-3 alpha (Homo sapiens, UniProt P49840), assembled from different documents, is shown next.
Note: values are log10 of IC50 expressed in nM.

Answered cases to consult:
CNC(=O)c1cc(C(C)(C)C)cc(NC(=O)Nc2ccc(Oc3ccnc(Nc4cc(CO)cc(OC)c4)c3)c3ccccc23)c1OC
3.22
O=C(Nc1cnccc1N1CCOCC1)c1ccnn2cc(-c3cccnc3)nc12
-0.40
CC(C)(C)c1cc(NC(=O)Nc2ccc(Oc3ccnc(Nc4ccc(SCCO)cc4)n3)c3ccccc23)n(-c2ccc(P(C)(C)=O)cc2)n1
2.23

Ask: Name the recorded log10 IC50 for CC1CN(c2ccncc2NC(=O)c2ccnn3cc(C4=CCCCC4)nc23)CCO1 (stereo not shown) .
Reply: 0.00

Ask: Give the measured log10 IC50 of "COCCOCCOCCOCCOCCOCCOCCOc1cc(Nc2nccc(Oc3ccc(NC(=O)Nc4cc(C(C)(C)C)cc(NS(C)(=O)=O)c4OC)c4ccccc34)n2)cc(OC)c1" .
Reply: 3.00
